# test target: human dopamine D2L receptor (Homo sapiens)
# Construct: host or cells: CHO-K1
# Sequence (P14416 whole entry): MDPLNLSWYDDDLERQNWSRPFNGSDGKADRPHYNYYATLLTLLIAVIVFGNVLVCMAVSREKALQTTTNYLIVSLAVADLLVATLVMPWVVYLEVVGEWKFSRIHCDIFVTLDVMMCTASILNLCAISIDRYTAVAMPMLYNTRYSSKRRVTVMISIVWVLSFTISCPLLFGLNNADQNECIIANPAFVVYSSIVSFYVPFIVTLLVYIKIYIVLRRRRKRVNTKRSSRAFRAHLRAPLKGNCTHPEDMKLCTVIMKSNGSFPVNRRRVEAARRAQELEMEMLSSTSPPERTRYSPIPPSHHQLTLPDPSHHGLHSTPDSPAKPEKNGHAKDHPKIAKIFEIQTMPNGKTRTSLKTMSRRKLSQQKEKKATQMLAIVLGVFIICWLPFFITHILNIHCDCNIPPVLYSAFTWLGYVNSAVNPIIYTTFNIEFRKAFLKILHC
# experimental details: Adenylate cyclase activity (cAMP assay), inhibition of forskolin-stimulated cAMP accumulation in CHO cells
# Assay type: cell-based
# condition set: 10^−7M test compound; control = forskolin-stimulated cAMP accumulation
# Procedure: All compounds were dissolved in DMSO. For incubation with test compounds (concentrations 10^−6-10^−10M), confluent cultures grown in 24 wells plates were used. Each condition or substance was routinely tested in quadruplicate. Cells were loaded with 1 μCi [^3H]-adenine in 0.5 ml medium/well. […] Eluates were mixed with 7 ml of Insta-gel and radioactivity was counted with a scintillation counter. […]
parameter measured: Conversion of cAMP, % of control (mean (±s.e.m.))

Exam item: Requested field: Conversion of cAMP, % of control (mean (±s.e.m.)). Item: O=c1[nH]c2cccc(N3CCN(Cc4cccc(-c5ccc(OS(=O)(=O)O)cc5)c4)CC3)c2o1 [4′-sulfate]
Marked response: 63 (14) % of control

Exam item: Requested field: Conversion of cAMP, % of control (mean (±s.e.m.)). Item: O=c1[nH]c2cccc(N3CCN(Cc4cccc(-c5ccc(O)cc5)c4)CC3)c2o1
Marked response: 50 (2) % of control

Exam item: Requested field: Conversion of cAMP, % of control (mean (±s.e.m.)). Item: O=c1[nH]c2cccc(N3CCN(Cc4cccc(-c5cccc(OS(=O)(=O)O)c5)c4)CC3)c2o1 [3′-sulfate]
Marked response: 66 (12) % of control

Exam item: Requested field: Conversion of cAMP, % of control (mean (±s.e.m.)). Item: O=c1[nH]c2cccc(N3CCN(Cc4cccc(-c5cccc(O)c5)c4)CC3)c2o1
Marked response: 56 (8) % of control

Exam item: Requested field: Conversion of cAMP, % of control (mean (±s.e.m.)). Item: O=c1[nH]c2cccc(N3CCN(Cc4cccc(-c5ccccc5)c4)CC3)c2o1
Marked response: 69 (11) % of control

###

# test target: human dopamine D2L receptor (Homo sapiens)
# Construct: host or cells: CHO-K1
# experimental details: Adenylate cyclase activity (cAMP assay), inhibition of forskolin-stimulated cAMP accumulation in CHO cells
# Type: cell-based
# condition set: inhibition of forskolin-induced cAMP accumulation, D2L agonism; read-out: pEC50 mean (±s.e.m.) (converted)
So basically: is EC50 under 6 nM? Then satisfied. Not under? Then not satisfied.

Exam item: Strictly below 6 nM in EC50? O=c1[nH]c2cccc(N3CCN(Cc4cccc(-c5ccc(O)cc5)c4)CC3)c2o1
Marked response: satisfied

Exam item: Strictly below 6 nM in EC50? O=c1[nH]c2cccc(N3CCN(Cc4cccc(-c5cccc(OS(=O)(=O)O)c5)c4)CC3)c2o1 [3′-sulfate]
Marked response: not satisfied

Exam item: Strictly below 6 nM in EC50? O=c1[nH]c2cccc(N3CCN(Cc4cccc(-c5cccc(O)c5)c4)CC3)c2o1
Marked response: satisfied

Exam item: Strictly below 6 nM in EC50? O=c1[nH]c2cccc(N3CCN(Cc4cccc(-c5ccc(OS(=O)(=O)O)cc5)c4)CC3)c2o1 [4′-sulfate]
Marked response: satisfied

Exam item: Strictly below 6 nM in EC50? O=c1[nH]c2cccc(N3CCN(Cc4cccc(-c5ccccc5)c4)CC3)c2o1
Marked response: not satisfied
